target: STK3 (human); test: radiometric filter-binding kinase assay, Kinase HotSpot; settings: compound 0.5 µM; ATP 10 µM
MEASURED ENDPOINT: residual activity (%)

> print(dat)
                                smiles.code  measured.endpoint  value.measured
1       Cn1cnc2cc3c(Nc4cccc(Br)c4)ncnc3cc21  residual activity            89.9
2  COc1ccc(CNC(=O)Nc2ncc([N+](=O)[O-])s2)cc1  residual activity            92.6
3          Cn1nc2c3c(cccc31)C(=O)c1ccccc1-2  residual activity            88.4
4         O=C(O)/C=C/c1cc(Br)c(Br)c(Br)c1Br  residual activity            91.4
5                  Nc1nnc2[nH]c3ccccc3nc1-2  residual activity            88.9
